Where do the numbers come from? From ChEMBL document CHEMBL4049407.

Listed below: Ki values for each entry.
molecular target: Proprotein convertase subtilisin/kexin type 6 (Homo sapiens); test: Inhibition of recombinant human PACE4 expressed in drosophila S2 cells using pyrGlu-Arg-Thr-Lys-Arg-7-amido-4-methylcoumarin as substrate after 60 mins by spectrofluorometry method
Sequence (P29122 whole entry): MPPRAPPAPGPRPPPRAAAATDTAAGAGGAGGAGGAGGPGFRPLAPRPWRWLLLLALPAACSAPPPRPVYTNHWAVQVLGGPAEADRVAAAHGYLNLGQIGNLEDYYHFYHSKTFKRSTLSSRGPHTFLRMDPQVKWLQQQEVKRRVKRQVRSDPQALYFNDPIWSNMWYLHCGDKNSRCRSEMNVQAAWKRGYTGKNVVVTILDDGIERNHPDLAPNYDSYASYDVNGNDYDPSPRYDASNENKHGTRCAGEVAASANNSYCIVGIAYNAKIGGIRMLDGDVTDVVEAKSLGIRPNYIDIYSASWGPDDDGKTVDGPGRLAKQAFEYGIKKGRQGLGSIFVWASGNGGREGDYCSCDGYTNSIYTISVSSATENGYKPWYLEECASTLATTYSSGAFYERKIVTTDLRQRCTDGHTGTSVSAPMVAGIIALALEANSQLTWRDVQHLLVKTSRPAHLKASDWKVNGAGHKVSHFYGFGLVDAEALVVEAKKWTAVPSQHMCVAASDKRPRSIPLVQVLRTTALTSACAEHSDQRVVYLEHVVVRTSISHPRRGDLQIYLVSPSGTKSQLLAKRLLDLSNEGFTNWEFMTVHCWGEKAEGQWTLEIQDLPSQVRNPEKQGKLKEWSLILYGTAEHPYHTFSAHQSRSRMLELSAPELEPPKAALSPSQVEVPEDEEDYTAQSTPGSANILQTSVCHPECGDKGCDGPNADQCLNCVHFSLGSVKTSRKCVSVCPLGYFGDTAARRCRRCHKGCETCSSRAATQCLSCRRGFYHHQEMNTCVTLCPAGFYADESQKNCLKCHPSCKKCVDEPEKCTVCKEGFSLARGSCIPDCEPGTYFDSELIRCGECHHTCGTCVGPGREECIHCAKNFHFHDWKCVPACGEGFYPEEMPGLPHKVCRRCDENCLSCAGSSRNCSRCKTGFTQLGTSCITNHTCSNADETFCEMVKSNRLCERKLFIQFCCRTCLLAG
Square brackets hold non-standard residues; d marks the D form. Peptide text beside a SMILES is read from it. * marks the point of attachment. NH(4-amidinobenzyl) = N=C(N)c1ccc(CN*)cc1
All answers are understood in nM, so give the number only.

Molecule: CC(=O)N[C@@H](CC(C)C)C(=O)N[C@@H](CC(C)C)C(=O)N[C@@H](CCC(N)=O)C(=O)N[C@@H](CC(C)C)C(=O)N[C@@H](CCCNC(=N)N)C(=O)N[C@H](C(=O)N[C@@H](CCCCN)C(=O)NCc1ccc(C(=N)N)cc1)C(C)C (Ac-LLQLRVK-{NH(4-amidinobenzyl)})
Assay target: Proprotein convertase subtilisin/kexin type 6 (Homo sapiens)
Recorded number: 4.1

Incoming: For CC(=O)N[C@H](CC(C)C)C(=O)N[C@@H](CC(C)C)C(=O)N[C@@H](CC(C)C)C(=O)N[C@@H](CC(C)C)C(=O)N[C@@H](CCCNC(=N)N)C(=O)N[C@H](C(=O)N[C@@H](CCCCN)C(=O)NCc1ccc(C(=N)N)cc1)C(C)C (Ac-[dL]LLLRVK-{NH(4-amidinobenzyl)}) , what is its reported Ki?
Outgoing: 4.9

Incoming: Param item: CC(=O)N1CCC[C@H]1C(=O)N[C@@H](CC(C)C)C(=O)N[C@@H](CC(C)C)C(=O)N[C@@H](CC(C)C)C(=O)N[C@@H](CCCNC(=N)N)C(=O)N[C@H](C(=O)N[C@@H](CCCCN)C(=O)NCc1ccc(C(=N)N)cc1)C(C)C (Ac-PLLLRVK-{NH(4-amidinobenzyl)})
Outgoing: 3

Incoming: Param item: CC(=O)N[C@@H](CC(C)C)C(=O)N[C@@H](C)C(=O)N[C@@H](CC(C)C)C(=O)N[C@@H](CC(C)C)C(=O)N[C@@H](CCCNC(=N)N)C(=O)N[C@H](C(=O)N[C@@H](CCCCN)C(=O)NCc1ccc(C(=N)N)cc1)C(C)C (Ac-LALLRVK-{NH(4-amidinobenzyl)})
Outgoing: 2

* * *

Listed below: Ratio Ki values for each entry.
species: Homo sapiens; experiment: Selectivity index, ratio of Ki for recombinant human furin expressed in drosophila S2 cells to Ki for recombinant human PACE4 expressed in drosophila S2 cells; format: cell-based
Peptide text beside a SMILES is read from it. * marks the point of attachment. NH(4-amidinobenzyl) = N=C(N)c1ccc(CN*)cc1
Give your answer as a number; write no unit.

Molecule: CC(=O)N[C@@H](CC(C)C)C(=O)N[C@@H](CC(C)C)C(=O)N[C@H](C(=O)N[C@@H](CC(C)C)C(=O)N[C@@H](CCCNC(=N)N)C(=O)N[C@H](C(=O)N[C@@H](CCCCN)C(=O)NCc1ccc(C(=N)N)cc1)C(C)C)[C@@H](C)O (Ac-LLTLRVK-{NH(4-amidinobenzyl)})
Ratio Ki: 0.5

Proceed to the following item.
Incoming: For CC(=O)N[C@@H](CC(C)C)C(=O)N[C@@H](CC(C)C)C(=O)N[C@@H](CC(C)C)C(=O)N[C@@H](CC(=O)O)C(=O)N[C@@H](CCCNC(=N)N)C(=O)N[C@H](C(=O)N[C@@H](CCCCN)C(=O)NCc1ccc(C(=N)N)cc1)C(C)C (Ac-LLLDRVK-{NH(4-amidinobenzyl)}) , what is its reported Ratio Ki?
Outgoing: 0.6

* * *

species: Homo sapiens; assay: Selectivity index, ratio of Ki for recombinant human furin expressed in drosophila S2 cells to Ki for recombinant human PACE4 expressed in drosophila S2 cells; assay type: cell-based
Peptide text beside a SMILES is read from it. * marks the point of attachment. NH(4-amidinobenzyl) = N=C(N)c1ccc(CN*)cc1
Observed property: Ratio Ki
Give your answer as a number; write no unit.

Reference set (5 entries):
Compound: CC(=O)N[C@@H](CC(C)C)C(=O)N[C@@H](CC(C)C)C(=O)N[C@@H](CC(=O)O)C(=O)N[C@@H](CC(C)C)C(=O)N[C@@H](CCCNC(=N)N)C(=O)N[C@H](C(=O)N[C@@H](CCCCN)C(=O)NCc1ccc(C(=N)N)cc1)C(C)C (Ac-LLDLRVK-{NH(4-amidinobenzyl)})
Ratio Ki: 1
--
Compound: CC(=O)N[C@@H](CC(C)C)C(=O)N[C@@H](CCCCN)C(=O)N[C@@H](CC(C)C)C(=O)N[C@@H](CC(C)C)C(=O)N[C@@H](CCCNC(=N)N)C(=O)N[C@H](C(=O)N[C@@H](CCCCN)C(=O)NCc1ccc(C(=N)N)cc1)C(C)C (Ac-LKLLRVK-{NH(4-amidinobenzyl)})
Ratio Ki: 1.2
--
Compound: CC(=O)N[C@@H](CC(C)C)C(=O)N[C@@H](Cc1cnc[nH]1)C(=O)N[C@@H](CC(C)C)C(=O)N[C@@H](CC(C)C)C(=O)N[C@@H](CCCNC(=N)N)C(=O)N[C@H](C(=O)N[C@@H](CCCCN)C(=O)NCc1ccc(C(=N)N)cc1)C(C)C (Ac-LHLLRVK-{NH(4-amidinobenzyl)})
Ratio Ki: 1.6
--
Compound: CC(=O)N[C@@H](CC(C)C)C(=O)N[C@@H](CC(C)C)C(=O)N[C@@H](Cc1cnc[nH]1)C(=O)N[C@@H](CC(C)C)C(=O)N[C@@H](CCCNC(=N)N)C(=O)N[C@H](C(=O)N[C@@H](CCCCN)C(=O)NCc1ccc(C(=N)N)cc1)C(C)C (Ac-LLHLRVK-{NH(4-amidinobenzyl)})
Ratio Ki: 2.7
--
Compound: CC[C@H](C)[C@H](NC(=O)[C@H](CC(C)C)NC(=O)[C@H](CC(C)C)NC(C)=O)C(=O)N[C@H](C(=O)N[C@@H](CCCNC(=N)N)C(=O)N[C@H](C(=O)N[C@@H](CCCCN)C(=O)NCc1ccc(C(=N)N)cc1)C(C)C)[C@@H](C)CC
Ratio Ki: 0.8

Incoming: For CC(=O)N[C@@H](CC(C)C)C(=O)N[C@@H](CC(C)C)C(=O)N[C@@H](CC(C)C)C(=O)N[C@@H](CC(N)=O)C(=O)N[C@@H](CCCNC(=N)N)C(=O)N[C@H](C(=O)N[C@@H](CCCCN)C(=O)NCc1ccc(C(=N)N)cc1)C(C)C (Ac-LLLNRVK-{NH(4-amidinobenzyl)}) , what is its reported Ratio Ki?
Outgoing: 1.8

Incoming: Param item: CC(=O)N[C@@H](CC(N)=O)C(=O)N[C@@H](CC(C)C)C(=O)N[C@@H](CC(C)C)C(=O)N[C@@H](CC(C)C)C(=O)N[C@@H](CCCNC(=N)N)C(=O)N[C@H](C(=O)N[C@@H](CCCCN)C(=O)NCc1ccc(C(=N)N)cc1)C(C)C (Ac-NLLLRVK-{NH(4-amidinobenzyl)})
Outgoing: 0.5

* * *

species on record: Homo sapiens; assay: Selectivity index, ratio of Ki for recombinant human furin expressed in drosophila S2 cells to Ki for recombinant human PACE4 expressed in drosophila S2 cells; assay type: cell-based
Peptide text beside a SMILES is read from it. * marks the point of attachment. NH(4-amidinobenzyl) = N=C(N)c1ccc(CN*)cc1
Listed below: Ratio Ki values for each entry.
Give your answer as a number; write no unit.

Compound: CC(=O)N[C@@H](Cc1cnc[nH]1)C(=O)N[C@@H](CC(C)C)C(=O)N[C@@H](CC(C)C)C(=O)N[C@@H](CC(C)C)C(=O)N[C@@H](CCCNC(=N)N)C(=O)N[C@H](C(=O)N[C@@H](CCCCN)C(=O)NCc1ccc(C(=N)N)cc1)C(C)C (Ac-HLLLRVK-{NH(4-amidinobenzyl)})
Recorded number: 1.4

Incoming: For CC(=O)N[C@@H](CC(C)C)C(=O)N[C@@H](CC(C)C)C(=O)N[C@@H](CC(C)C)C(=O)N[C@@H](Cc1cnc[nH]1)C(=O)N[C@@H](CCCNC(=N)N)C(=O)N[C@H](C(=O)N[C@@H](CCCCN)C(=O)NCc1ccc(C(=N)N)cc1)C(C)C (Ac-LLLHRVK-{NH(4-amidinobenzyl)}) , what is its reported Ratio Ki?
Outgoing: 2.3

Incoming: Param item: CC(=O)N[C@@H](CC(C)C)C(=O)N1CCC[C@H]1C(=O)N[C@@H](CC(C)C)C(=O)N[C@@H](CC(C)C)C(=O)N[C@@H](CCCNC(=N)N)C(=O)N[C@H](C(=O)N[C@@H](CCCCN)C(=O)NCc1ccc(C(=N)N)cc1)C(C)C (Ac-LPLLRVK-{NH(4-amidinobenzyl)})
Outgoing: 1.5

Incoming: Param item: CC(=O)N[C@@H](CC(C)C)C(=O)N[C@@H](CC(C)C)C(=O)N[C@@H](CC(C)C)C(=O)N[C@@H](Cc1ccc(O)cc1)C(=O)N[C@@H](CCCNC(=N)N)C(=O)N[C@H](C(=O)N[C@@H](CCCCN)C(=O)NCc1ccc(C(=N)N)cc1)C(C)C (Ac-LLLYRVK-{NH(4-amidinobenzyl)})
Outgoing: 1.6
